Assay: Metabolic stability in human liver microsomes assessed as half-life at 1 uM incubated for 60 mins in presence of NADPH by LC-MS/MS analysis
Type: ADME, Microsome
Details: liver microsomes
assay-metric: half-life at 1 µM (s)
Write the number in s without appending the unit.

Answer with the recorded half-life at 1 µM for the compound listed here: `COc1ccc(N(C)C(=O)[C@H](Cc2ccccc2)NC(=O)Cc2c(C)[nH]c3ccccc23)cc1`
42

====

Experiment: Cytotoxicity against human MT4 cells assessed as reduction in cell viability incubated for 5 days by MTT assay
Type: toxicity, cell-based
Details: MT4 cells, time 5 day
assay-metric: CC50 at 120 h (µM)
Write the number in µM without appending the unit.

Study these solved cases before continuing.
COc1ccc(N(C)C(=O)[C@H](Cc2ccccc2)NC(=O)Cn2ccc(NC(=O)c3ccc(Cl)cc3)cc2=O)cc1 ... 25.5
COc1ccc(N(C)C(=O)[C@H](Cc2ccccc2)NC(=O)CN2CCN(C(=O)Cc3c(C)[nH]c4ccccc34)CC2=O)cc1 ... 108
COc1ccc(-n2c(SCC(N)=O)nnc2[C@H](Cc2ccccc2)NC(=O)Cc2c(C)[nH]c3ccccc23)cc1 ... 118
COc1ccc(N(C)C(=O)[C@H](Cc2cc(F)cc(F)c2)NC(=O)CN2CCN(C(=O)Cc3c[nH]c4ccc(Br)cc34)CC2=O)cc1 ... 3.15

Answer with the recorded CC50 at 120 h for the compound listed here: `COc1ccc(-n2c(SCc3ccccn3)nnc2[C@H](Cc2ccccc2)NC(=O)Cc2c(C)[nH]c3ccccc23)cc1`
24.2

====

Assay: Cytotoxicity against human MT4 cells assessed as reduction in cell viability incubated for 5 days by MTT assay
Type: toxicity, cell-based
Conditions: MT4 cells, time 5 day
Recorded CC50 at 120 h for the following compounds
Write the number in µM without appending the unit.

Study these solved cases before continuing.
COc1ccc(N(C)C(=O)[C@H](Cc2cc(F)cc(F)c2)NC(=O)CN(CC2CCCCC2)C(=O)Cn2nc(C(F)(F)F)cc2C)cc1 ... 45.7
COc1ccc(N(C)C(=O)[C@H](Cc2ccccc2)NC(=O)Cn2ccc(NC(=O)c3cccc(F)c3)cc2=O)cc1 ... 61.6
COc1ccc(N(C)C(=O)[C@H](Cc2cc(F)cc(F)c2)NC(=O)CN(Cc2ccc(F)cc2)C(=O)Cn2nc(C(F)(F)F)c3ccccc32)cc1 ... 108

Kindly review the next compound as well.
Answer with the recorded CC50 at 120 h for the compound listed here: `COc1ccc(N(C)C(=O)[C@H](Cc2cc(F)cc(F)c2)NC(=O)CN(CC2CCCCC2)C(=O)Cc2c[nH]c3ccc(Br)cc23)cc1`
17.6

====

Tested on: Human immunodeficiency virus 1
Assay: Antiviral activity against HIV1 IIIB infected in human MT4 cells assessed as reduction in virus induced cytopathic effect measured after 5 days by MTT assay
Assay type: functional, organism-based
Details: Human immunodeficiency virus 1, IIIB, MT4, 120 h
assay-metric: pEC50
The quantity pEC50 is defined as the negative base-10 logarithm of the molar concentration.

Study these solved cases before continuing.
COc1ccc(-n2c(SCCN(C)C)nnc2[C@H](Cc2ccccc2)NC(=O)Cc2c(C)[nH]c3ccccc23)cc1 ... 6.07
COc1ccc(-n2c(SCc3ncccn3)nnc2[C@H](Cc2ccccc2)NC(=O)Cc2c(C)[nH]c3ccccc23)cc1 ... 5.74

Answer with the recorded pEC50 for the molecule listed here: `COc1ccc(N(C)C(=O)[C@H](Cc2cc(F)cc(F)c2)NC(=O)CN(Cc2ccccc2)C(=O)Cc2c(C)[nH]c3ccccc23)cc1`
5.56

Answer with the recorded pEC50 for the molecule listed here: `COc1ccc(-n2c(SCCC3OCCCO3)nnc2[C@H](Cc2ccccc2)NC(=O)Cc2c(C)[nH]c3ccccc23)cc1`
5.79
